Reported photoluminescence quantum yield values follow for various compounds
assay: photoluminescence quantum yield (fraction); solvent given as SMILES; conditions: in CO
// no unit string in output, number only

Worked examples, 3 compounds total:
N#Cc1nc2cnc(N)nc2n1Cc1ccccc1
0.64
CC1(C)C(/C=C/C=C/C=C/C=C2/N(CCCCCC(=O)O)c3ccc(S(=O)(=O)[O-])cc3C2(C)C)=[N+](CCCCCC(=O)O)c2ccc(S(=O)(=O)[O-])cc21
0.62
O=c1oc2c(ccc3ccccc32)nc1-c1ccccc1
0.45

Challenge: Can you look up the measured photoluminescence quantum yield of Nc1ccc(C#Cc2ccc3ccc4ccc(C#Cc5ccc(N)cc5)c5ccc2c3c45)cc1 for me?
Response given: 0.199

Challenge: What do you get for CCCCCCN(CCCCCC)c1ccc(C#Cc2ccc(C#N)cc2)cc1 ?
Response given: 0.015

Challenge: What do you get for CCN(CC)c1ccc2c(c1)oc(=O)c1c(C)nc3c(c(-c4ccccc4)nn3-c3ccccc3)c12 ?
Response given: 0.396

Challenge: What do you get for NCc1ccc2ccc3cccc4ccc1c2c34 ?
Response given: 0.3

Challenge: What do you get for COc1cnc(-c2cc[n+](C3=C(F)C(F)(F)C(F)(F)[C-]3F)cc2)s1 ?
Response given: 0.08

Challenge: What do you get for CCC1=C(C)C(=O)n2c1cc1c(c(C)c(C(=O)OC)n1C)c2=O ?
Response given: 0.66

Challenge: What do you get for CN(C)c1ccc(C#Cc2ccccc2)cc1 ?
Response given: 0.01

* * *

test: photoluminescence quantum yield (fraction); solvent given as SMILES; settings: in Cc1ccccc1
Assign labels as follows, please: yes for photoluminescence quantum yield below 0.7; no for photoluminescence quantum yield equal to or exceeding 0.7.

// known answers, use as guide
CCCCCCN(CCCCCC)c1ccc(C#Cc2ccc(C#Cc3ccc(-c4ccc(C#Cc5ccc(C#Cc6ccc(N(CCCCCC)CCCCCC)cc6)cc5)cc4)cc3)cc2)cc1
no
CCCCCn1c2cc(/C=C/c3ccc(N(c4ccccc4)c4ccccc4)cc3)ccc2c2ccc(/C=C/c3ccc(N(c4ccccc4)c4ccccc4)cc3)cc21
no
CC1(C)c2ccccc2N(c2ccc(-c3cnc(C#N)nc3)cc2)c2ccccc21
yes

Challenge: Item CN(C)c1ccc(C#Cc2ccccc2)cc1 : photoluminescence quantum yield beneath 0.7, strictly?
Response given: yes

Challenge: What do you get for COc1ccc(-c2c3ccc([nH]3)c3nc(c(-c4ccc(C#N)cc4)c4ccc([nH]4)c4ccc([nH]4)c(-c4ccc(OC)cc4)c4ccc2o4)C=C3)cc1 ?
Response given: yes

Challenge: What do you get for CC1=CC(C)=[N+]2C1=C(c1ccc(-c3c4ccccc4c(-c4ccccc4)c4ccccc34)cc1)c1c(C)cc(C)n1[B-]2(F)F ?
Response given: yes

Challenge: What do you get for CCn1c2ccccc2c2cc(C#Cc3cc(C#Cc4ccc5c(c4)c4ccccc4n5CC)nc(SC)n3)ccc21 ?
Response given: yes

* * *

assay: photoluminescence quantum yield (fraction); solvent given as SMILES; conditions: in CCO
Reported photoluminescence quantum yield values follow for various compounds
// no unit string in output, number only

CC(C)=CCN1C(=O)c2cccc3c2c(cc2nc(C)oc23)C1=O
0.011
CN(C)c1ccc(/C=C2\OC(=O)c3cc(N)ccc32)cc1
0.22
CC/[NH+]=c1\cc2oc3cc(NCCC(=O)NC(C(=O)OC)C(C)C)c4ccccc4c3nc-2cc1C (stereo not drawn)
0.4

Challenge: Can you look up the measured photoluminescence quantum yield of CC/[NH+]=c1\cc2oc3cc(NCCOC(=O)C(NC(=O)OC(C)(C)C)C(C)C)c4ccccc4c3nc-2cc1C (stereo not drawn) for me?
Response given: 0.32

Challenge: What do you get for COCCOCCOCCOc1ccc(OCCOCCOCCOC)c(C=O)c1 ?
Response given: 0.2

Challenge: What do you get for CN(C)c1ccc(-c2ccc(C#N)s2)s1 ?
Response given: 0.23

Challenge: What do you get for N#CC(C#N)=Cc1ccc(-c2ccc(-c3nc4ccccc4s3)c(O)c2)s1 ?
Response given: 0.0111

Challenge: What do you get for Cc1c(C)n2c(COC(=O)c3ccc(F)cc3)c(C)c(=O)n2c1=O ?
Response given: 0.631

Challenge: What do you get for CN1C(=O)/C(=C/c2ccncc2)N=C1/C=C/c1ccncc1 ?
Response given: 0.028

Challenge: What do you get for c1ccc(-n2c3ccccc3c3ccccc32)cc1 ?
Response given: 0.46

Challenge: What do you get for Oc1ccccc1-c1nc2ccccc2s1 ?
Response given: 0.0155

Challenge: What do you get for Cc1ccc(C2=C3C=C(I)C=[N+]3[B-](F)(F)n3cc(I)cc32)cc1 ?
Response given: 0.006

Challenge: What do you get for COc1ccc(-c2nc(C(C)=O)c(C)o2)cc1 ?
Response given: 0.053

* * *

assay: photoluminescence quantum yield (fraction); solvent given as SMILES; settings: in CC#N
observed_property: photoluminescence quantum yield
// no unit string in output, number only

Worked examples, 5 compounds total:
COC(=O)C(NC(=O)OC(C)(C)C)c1ccc2oc(-c3cc(OC)c(OC)cc3OC)nc2c1 (stereo unspecified)
0.79
C=CCOc1ccc(-c2nc3cc(C(NC(=O)OC(C)(C)C)C(=O)OC)ccc3o2)cc1 (stereo unspecified)
0.56
CCC1(CC)c2cc(C=O)ccc2-c2ccc(N(C)C)cc21
0.81
[C-]#[N+]c1ccc(-c2ccc(N(C)C)cc2)cc1
0.89
NS(=O)(=O)c1ccc(N2N=C(c3ccc(O)cc3)CC2c2ccccc2)cc1 (stereo unspecified)
0.6

Challenge: Can you look up the measured photoluminescence quantum yield of C=Cc1cc2cc3c(cc2oc1=O)OCO3 for me?
Response given: 0.65

Challenge: What do you get for C[Si](C)(C)[Si](C)(C)c1c2ccccc2cc2ccccc12 ?
Response given: 0.65

* * *

assay: photoluminescence quantum yield (fraction); solvent given as SMILES; details: in CC#N
Reported photoluminescence quantum yield values follow for various molecules
// no unit string in output, number only

Worked examples, 2 molecules total:
c1ccc(-c2csc(-c3ccncc3)n2)cc1
0.558
C(/C=C/c1ccc(-n2c3ccccc3c3ccccc32)cc1)=C\c1ccncc1
0.32

Challenge: Can you look up the measured photoluminescence quantum yield of Cc1ccc(-c2ccc(/C=C/c3ccc(Cl)cc3)cn2)nc1 for me?
Response given: 0.76

Challenge: What do you get for CCOC(=O)COc1ccc(/C=C/C2=C3c4ccccc4C(c4[nH]c(C)cc4C)=[N+]3[B-](F)(F)n3c(/C=C/c4ccc(OCC(=O)OCC)cc4)cc(C)c32)cc1 ?
Response given: 0.009

Challenge: What do you get for N#Cc1ccc(C[C@H](N)C(=O)O)cc1 ?
Response given: 0.026

Challenge: What do you get for CCN(CC)c1ccc2cc(/C=C/c3ccccc3)c(=O)oc2c1 ?
Response given: 0.85

* * *

assay: photoluminescence quantum yield (fraction); solvent given as SMILES; details: in CC#N
observed_property: photoluminescence quantum yield
// no unit string in output, number only

Challenge: Can you look up the measured photoluminescence quantum yield of COc1cc(/C=C/c2cc(OC)c(-c3nc(-c4ccccc4)c(-c4ccccc4)[nH]3)cc2OC)c(OC)cc1/C=C/c1cc(OC)c(-c2nc(-c3ccccc3)c(-c3ccccc3)[nH]2)cc1OC for me?
Response given: 0.24

Challenge: What do you get for Cc1cc2c(o1)c(Br)cc1c(C)cc(=O)oc12 ?
Response given: 0.0014

Challenge: What do you get for CN(C)c1ccc(C2=Cc3cccc[n+]3[B-](F)(F)O2)cc1 ?
Response given: 0.517

Challenge: What do you get for CN(C)c1ccc2nc(-c3ccc(C=C(C#N)C#N)cc3)sc2c1 ?
Response given: 0

Challenge: What do you get for CCC1(CC)c2cc(/C=C/c3ccc(/C=C/c4ccc5c(c4)C(CC)(CC)c4cc(N6c7ccccc7Sc7ccccc76)ccc4-5)cc3)ccc2-c2ccc(N3c4ccccc4Sc4ccccc43)cc21 ?
Response given: 0.26

Challenge: What do you get for CSc1cc(-c2cc3cc4c5c(c3oc2=O)CCCN5CCC4)oc(=O)c1C#N ?
Response given: 0.29

Challenge: What do you get for Cc1cc(C)c(C2=C3C=c4c(c5ccc(C(C)(C)C)cc5c5cc(C(C)(C)C)ccc45)=[N+]3[B-](F)(F)n3c2cc2c4ccc(C(C)(C)C)cc4c4cc(C(C)(C)C)ccc4c23)c(C)c1 ?
Response given: 0.24

* * *

test: photoluminescence quantum yield (fraction); solvent given as SMILES; details: in Cc1ccccc1
Reported photoluminescence quantum yield values follow for various molecules

CCOC(=O)CN1C(=O)C2=C(c3ccc(N4CCCCC4)cc3)N(CC(=O)OCC)C(=O)C2=C1c1ccccc1
0.34

Challenge: Can you look up the measured photoluminescence quantum yield of c1ccc(-n2c3ccccc3c3c2c2ccccc2n3-c2ccccc2)cc1 for me?
Response given: 0.404

Challenge: What do you get for CCCCCCc1ccc(-n2c3[n+](c4c5ccccc5c5ccccc5c42)[B-](C)(C)c2ccc4ccccc4c2-3)cc1 ?
Response given: 0.16

Challenge: What do you get for Cc1ccc2c(c1)c1cc(C)ccc1n2-c1c(C#N)c(-n2c3ccc(C)cc3c3cc(C)ccc32)c(-n2c3ccc(C)cc3c3cc(C)ccc32)c(C#N)c1-n1c2ccc(C)cc2c2cc(C)ccc21 ?
Response given: 0.474
